Provide the reported peptide exchange yield of each item.
# Target Entity: HLA-A*02 (human)
# Method Summary: UV-exchange b2m ELISA

Answered examples (2):
FLTAINYLL
50 to 75%
VLIDPQWVLTA
50 to 75%

Turning now to a further binder:
-- ask For the binder `HLSTIIHEA` , give its measured peptide exchange yield value.
-- reply 50 to 75%
